Protocol Description: Cmax in Sprague-Dawley rat at 15 mg/kg, po by LC-MS analysis
Format: ADME, organism-based
Design: dose 15 mg/kg, route oral
Condition Parameters: in vivo
Metric Name: Cmax
Please make sure the unit comes right after the number.

If you can, please state the reported Cmax value of "CC(=O)NC[C@@H]1OC(=O)N2c3ccc(-c4ccc(C#N)nc4)cc3OC[C@@H]12" .
5000 ng/mL

* * *

Tested on: Enterococcus faecium
Protocol Description: Antibacterial activity against linezolid-resistant Enterococcus faecium after 16 hrs by agar dilution method
Format: functional
MIC values for the compounds below.
A number alone suffices; assume µg/mL.

CC(=O)NC[C@@H]1OC(=O)N2c3ccc(-c4ccc(N)nc4)cc3OC[C@@H]12 = 2
CC(=O)NC[C@@H]1OC(=O)N2c3ccc(-c4ccc(C#N)nc4)cc3OC[C@@H]12 = 0.5

Attention now turns to another entry.
If you can, please state the reported MIC value of CC(=O)NC[C@H]1CN(c2ccc(N3CCOCC3)c(F)c2)C(=O)O1 [LINEZOLID] .
8

* * *

Protocol Description: Oral bioavailability in Sprague-Dawley rat at 50 mg/kg by LC-MS analysis
Type: ADME, organism-based
Condition Parameters: in vivo
Metric Name: bioavailability (%)
A number alone suffices; assume %.

If you can, please state the reported bioavailability value of "CC(=O)NC[C@@H]1OC(=O)N2c3ccc(-c4ccc(N5CCOC5=O)nc4)cc3OC[C@@H]12" .
18

* * *

Test system: Staphylococcus epidermidis
Protocol Description: Antibacterial activity against methicillin-resistant Staphylococcus epidermidis after 16 hrs by agar dilution method
Assay type: functional
log10(MIC) values for the compounds below.
Remember, log10 of MIC, in µg/mL.

Reference set (10 entries):
CC(=O)NC[C@@H]1OC(=O)N2c3ccc(-c4ccncc4)cc3OC[C@@H]12 = 0.00
CC(=O)NC[C@@H]1OC(=O)N2c3ccc(-c4ccc(C#N)cc4)cc3OC[C@@H]12 = -0.30
CC(=O)NC[C@@H]1OC(=O)N2c3ccc(-c4ccc(C(=O)N(C)C)nc4)cc3OC[C@@H]12 = 0.00
CC(=O)NC[C@@H]1OC(=O)N2c3ccc(-c4cccc(N)c4)cc3OC[C@@H]12 = 0.00
CC(=O)NC[C@@H]1OC(=O)N2c3ccc(N4CCN(Cc5ccc([N+](=O)[O-])o5)CC4)cc3OC[C@@H]12 = 0.30
CC(=O)NC[C@@H]1OC(=O)N2c3ccc(-c4ccc(C5(C#N)CC5)nc4)cc3OC[C@@H]12 = -0.30
CC(=O)NC[C@@H]1OC(=O)N2c3ccc(N4CCOCC4)cc3OC[C@@H]12 = 0.60
CC(=O)NC[C@@H]1OC(=O)N2c3ccc(-c4cncc(N5CCOC5=O)c4)cc3OC[C@@H]12 = -0.30
CC(=O)NC[C@@H]1OC(=O)N2c3ccc(-c4cccs4)cc3OC[C@@H]12 = 0.00
CC(=O)NC[C@@H]1OC(=O)N2c3ccc(-c4cncc(C(C)=O)c4)cc3OC[C@@H]12 = -0.30

If you can, please state the reported log10(MIC) value of "CC(=O)NC[C@@H]1OC(=O)N2c3ccc(-c4cc(C#N)ccn4)cc3OC[C@@H]12" .
-0.60

If you can, please state the reported log10(MIC) value of "CC(=O)NC[C@@H]1OC(=O)N2c3ccc(-c4ccc(N5CCOC5=O)cn4)cc3OC[C@@H]12" .
0.00

If you can, please state the reported log10(MIC) value of "CC(=O)NC[C@@H]1OC(=O)N2c3ccc(-c4ccc(-n5ccnc5)nc4)cc3OC[C@@H]12" .
-0.30

If you can, please state the reported log10(MIC) value of "CC(=O)NC[C@@H]1OC(=O)N2c3ccc(-c4cnc(N)nc4)cc3OC[C@@H]12" .
0.00

If you can, please state the reported log10(MIC) value of "CC(=O)NC[C@@H]1OC(=O)N2c3ccc(-c4ccc(C(F)(F)F)nc4)cc3OC[C@@H]12" .
0.00

If you can, please state the reported log10(MIC) value of "CC(=O)NC[C@@H]1OC(=O)N2c3ccc(-c4ccc(NC(C)=O)nc4)cc3OC[C@@H]12" .
0.00

If you can, please state the reported log10(MIC) value of "CC(=O)NC[C@@H]1OC(=O)N2c3cc(F)c(-c4cccnc4)cc3OC[C@@H]12" .
0.00
